- assay remarks: small-molecule microarray binders of probe aCHRDL2, primary screen, biochemical, biotinylated probe, 635/667 nm fluorescence (AID 1100)
- experimental setup: higher = more signal
Please mark rule met if the recorded composite z-score is equal to or greater than 0.2, and rule not met if it falls below.

Please tell me: is the compound COc1ccc(CCNC(=O)[C@@]2(Sc3ccc(C)cc3)CC(=O)N(Cc3ccccc3)[C@@H]2c2ccc(CO)cc2I)cc1 at or over 0.2 in terms of composite z-score?
rule met

Please indicate if the recorded composite z-score for COc1ccc([Si](C)(C)[C@H]2[C@H](CCO)O[C@@]3(C(=O)N(Cc4ccc(N5C(=O)c6cccc7cccc5c67)cc4)c4ccccc43)[C@@H]2C)cc1 meets or exceeds 0.2.
rule met

Identify whether the reported composite z-score of the following compound is 0.2 or greater: CO[C@H]1O[C@H](CO)[C@@H](OC(=O)Nc2ccccc2)[C@H](OC(=O)Nc2ccccc2-c2ccccc2)[C@@H]1OC(=O)Nc1ccccc1-c1ccccc1
rule met

Quick check, composite z-score >= 0.2? C=C(COC)C(=O)CC[C@H](OC(=O)c1ccccc1-c1ccccc1C(=O)O)c1ccccc1OCCO
rule not met

Item C=CCC(OC(C)=O)[C@@H]1[C@@H](N(Cc2ccc(-c3cccc(C(F)(F)F)c3)o2)C(=O)c2ccc(-c3ccccc3)cc2)c2cc(OCCCO)ccc2N1C(=O)Cc1ccc(OC)cc1 (stereo partly drawn) with composite z-score of 0.2 or above?
rule met

Is reported composite z-score greater than or equal to 0.2 here: COC(=O)C1=CC(c2ccc(CO)cc2)=CC(c2cccs2)N(C)C=C1C(=O)OC (stereo not drawn)
rule met

Item [N-]=[N+]=NCc1ccccc1C[C@]1(C(=O)NCc2ccccc2)N=C(c2ccc(OCCCO)cc2)O[C@H]1c1ccccc1 with composite z-score of 0.2 or above?
rule met

Decide: is the reported value of composite z-score for CC(C)C(CO)N1C(=O)[C@@H]2C3C(=O)OCCC/C=C\[C@H]3OC23C=CCN(C(C)C)C(=O)[C@@H]13 (stereo partly drawn) equal to or greater than 0.2?
rule met

###

- assay remarks: FRG1 promoter luciferase signal modulators, primary screen, FRG1 inhibition for FSHD, cell-based, C2C12 myotubes, firefly/Renilla luciferase, luminescence (AID 1084)
- experimental setup: higher = more signal, called active from +8 up or from −8 down
z-score by entry:
Reply: number alone, nothing else.

compound: CCN(CC)c1ccc(N2CC=CC34O[C@@H]5C=CCOC(=O)[C@@H]5[C@H]3C(=O)N(C(C)CO)[C@@H]4C2=O)cc1 (stereo partly specified)
z-score: 0.403

Continue with the compound presented below.
Sure, the documented z-score for CCOC(=O)C[C@H]1[C@H](OC(=O)c2cc3ccccc3oc2=O)[C@@H](NC(=O)c2ccccc2)c2cc(OCCCO)ccc2N1C(=O)Cc1ccc(OC)cc1 is -0.265

###

Entries and their composite z-score
- Test system: PRMT1 (protein arginine N-methyltransferase 1)
- assay remarks: PRMT1 binders on small-molecule microarrays, primary screen, biochemical, small-molecule microarray, 635 nm fluorescence (AID 1088);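 also: binding of Prmt1 protein to compounds spotted on small-molecule microarray slides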
- experimental setup: small-molecule microarray binding, higher = more signal
The reply should be a number, written without any unit.

compound: C=C(COC)/C(=C/C[C@H](OC(C)=O)c1cccc(OCCO)c1)c1cc(C(=O)OC)ccc1OC
composite z-score: 0.905
--
compound: O=C1N(CCS(=O)(=O)c2ccccc2)Cc2ccccc2[C@@H]2OC(c3ccc(OCCCO)cc3)=N[C@]12Cc1ccccc1
composite z-score: 1.53

// composite z-score lookup, compound = C=C(COC)C(=O)CC[C@H](OC(=O)c1ccccc1-c1ccccc1C(=O)O)c1ccccc1OCCO , result: 1.56

Short answer for Cc1ccc(S[C@]2(C(=O)NCCN3CCOCC3)CC(=O)N(Cc3cc(C(F)(F)F)cc(C(F)(F)F)c3)[C@@H]2c2ccc(CO)cc2)cc1 : composite z-score was 1.24

Sure, the documented composite z-score for C=CC[C@]1(C(=O)N(C)C)N=C(c2ccc(OCCCO)cc2)O[C@H]1c1ccccc1CN=[N+]=[N-] is 1.09
